Values compiled from ChEMBL document CHEMBL3098056.

IC50 tested on UniProt P14780: recorded values
property measured: IC50 (µM)

>>> val("Cc1cc(N)c2cc(NC(=O)c3ccc(-c4cccc5cccnc45)cc3)ccc2n1")
17
>>> val("Cc1cc(N)c2cc(NC(=O)c3ccc(-c4cnc5ccccc5c4)cc3)ccc2n1")
11

* * *

Target: Interstitial collagenase (Homo sapiens)
Sequence (P03956 whole entry): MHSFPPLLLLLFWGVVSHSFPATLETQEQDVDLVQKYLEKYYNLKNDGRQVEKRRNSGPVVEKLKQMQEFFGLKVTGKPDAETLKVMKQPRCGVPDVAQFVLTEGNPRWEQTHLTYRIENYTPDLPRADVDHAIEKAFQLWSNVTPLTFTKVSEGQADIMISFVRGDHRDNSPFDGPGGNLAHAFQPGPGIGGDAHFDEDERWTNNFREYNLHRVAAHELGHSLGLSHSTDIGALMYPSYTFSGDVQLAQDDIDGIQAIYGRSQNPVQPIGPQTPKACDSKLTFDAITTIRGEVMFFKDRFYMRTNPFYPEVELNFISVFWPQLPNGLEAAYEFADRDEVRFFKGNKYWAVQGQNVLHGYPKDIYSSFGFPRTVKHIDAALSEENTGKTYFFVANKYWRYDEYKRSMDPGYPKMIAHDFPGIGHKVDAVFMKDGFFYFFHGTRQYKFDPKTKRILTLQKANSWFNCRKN
property measured: IC50 (µM)

>>> val("Cc1cc(N)c2cc(NC(=O)c3cccc(-c4cccc5ncccc45)c3)ccc2n1")
65
>>> val("Cc1cc(N)c2cc(NC(=O)c3ccc(-c4cnc5ccccc5c4)cc3)ccc2n1")
78
>>> val("Cc1cc(N)c2cc(NC(=O)c3cccc(-c4cncc5ccccc45)c3)ccc2n1")
50
>>> val("Cc1cc(N)c2cc(NC(=O)Nc3ccc4nc(C)cc(N)c4c3)ccc2n1 [AMINOQUINURIDE]")
31

* * *

Below are pIC50 values recorded for Matrix metalloproteinase-9 (Homo sapiens, UniProt P14780).
pIC50: −log10 of the molar value.
property measured: pIC50

>>> val("Cc1cc(N)c2cc(NC(=O)c3ccc(-c4ccc5ncccc5c4)cc3)ccc2n1")
5.77
>>> val("Cc1cc(N)c2cc(NC(=O)c3cccc(-c4cccc5ncccc45)c3)ccc2n1")
4.30
>>> val("Cc1cc(N)c2cc(NC(=O)c3cccc(-c4cncc5ccccc45)c3)ccc2n1")
4.32
>>> val("Cc1cc(N)c2cc(NC(=O)Nc3ccc4nc(C)cc(N)c4c3)ccc2n1 [AMINOQUINURIDE]")
4.00
>>> val("Cc1cc(N)c2cc(NC(=O)c3ccc(-c4cncc5ccccc45)cc3)ccc2n1")
5.03

* * *

Molecular target: Lethal factor (Bacillus anthracis)
Experiment: Inhibition of Bacillus anthracis lethal factor assessed as MCA-KKVYPYPME[dnp]K amide cleavage after 30 mins by fluorescence plate reader analysis
property measured: IC50 (µM)

>>> val("Cc1cc(N)c2cc(NC(=O)c3ccc(-c4cnc5ccccc5c4)cc3)ccc2n1")
3
>>> val("Cc1cc(N)c2cc(NC(=O)c3ccc(-c4cccc5cccnc45)cc3)ccc2n1")
11
>>> val("Cc1cc(N)c2cc(NC(=O)c3cccc(-c4cccc5ncccc45)c3)ccc2n1")
33
>>> val("COc1ccc(/C=C/C(=O)Nc2ccc3nc(C)cc(N)c3c2)cc1")
55
>>> val("COc1cc(Cl)ccc1CCC(=O)Nc1ccc2nc(C)cc(N)c2c1")
78
>>> val("Cc1cc(N)c2cc(NC(=O)c3cccc(-c4cnc5ccccc5c4)c3)ccc2n1")
5.7
>>> val("Cc1cc(N)c2cc(NC(=O)c3cccc(-c4ccc5ncccc5c4)c3)ccc2n1")
4.6
>>> val("Cc1cc(N)c2cc(NC(=O)Nc3ccc4nc(C)cc(N)c4c3)ccc2n1 [AMINOQUINURIDE]")
3.2
>>> val("Cc1cc(N)c2cc(NC(=O)Nc3ccc(-c4ccccc4)cc3)ccc2n1")
79

* * *

Biological target: Lethal factor (Bacillus anthracis, UniProt P15917)
Test: Non-competitive inhibition of Bacillus anthracis lethal factor using 100 uM MCA-KKVYPYPME[dnp]K amide as substrate after 30 mins by Eadie-Hofstee plot analysis
Measured IC50 accompanies every entry in the list below.
property measured: IC50

>>> val("Cc1cc(N)c2cc(NC(=O)c3ccc(-c4ccc5ncccc5c4)cc3)ccc2n1")
"1100 nM"
>>> val("COc1ccccc1CCC(=O)Nc1ccc2nc(C)cc(N)c2c1")
"1220 nM"

* * *

Target: Botulinum neurotoxin type A (Clostridium botulinum, UniProt P0DPI0)
Sequence (P0DPI0 2-448 limits assumed): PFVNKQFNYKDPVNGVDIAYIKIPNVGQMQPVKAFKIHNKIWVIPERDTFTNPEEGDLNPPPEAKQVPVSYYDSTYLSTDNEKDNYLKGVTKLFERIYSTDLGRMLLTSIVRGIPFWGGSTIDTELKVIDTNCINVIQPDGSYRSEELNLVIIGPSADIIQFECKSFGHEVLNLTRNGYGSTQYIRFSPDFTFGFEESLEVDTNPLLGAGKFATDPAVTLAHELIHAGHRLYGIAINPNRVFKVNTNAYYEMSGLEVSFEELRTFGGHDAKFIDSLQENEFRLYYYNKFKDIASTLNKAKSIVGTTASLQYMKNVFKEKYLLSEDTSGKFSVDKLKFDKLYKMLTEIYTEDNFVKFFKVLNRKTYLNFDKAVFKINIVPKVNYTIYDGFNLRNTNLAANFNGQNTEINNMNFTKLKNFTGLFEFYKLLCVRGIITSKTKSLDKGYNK
Test: Inhibition of Clostridium bolulinum BoNT/A assessed as cleavage of MOCAc-Lys-Lys-Val-Tyr-Pro-Tyr-Pro-Met-Glu-Lys(Dnp)-NH2 after 40 mins by FRET assay
pIC50: −log10 of the molar value.
property measured: pIC50

>>> val("Cc1cc(N)c2cc(NC(=O)c3ccc(Oc4ccccc4)cc3)ccc2n1")
"< 4.00"
>>> val("Cc1cc(N)c2cc(NC(=O)CCc3ccccc3Cl)ccc2n1")
"< 4.00"
>>> val("COc1ccccc1/C=C/C(=O)Nc1ccc2nc(C)cc(N)c2c1")
"< 4.00"
>>> val("Cc1cc(N)c2cc(NC(=O)CCc3ccccc3C)ccc2n1")
"< 4.00"
>>> val("CCOC(=O)c1ccc(NC(=O)Nc2ccc3nc(C)cc(N)c3c2)cc1")
4.29
>>> val("COc1cc(Cl)ccc1CCC(=O)Nc1ccc2nc(C)cc(N)c2c1")
"< 4.00"
>>> val("COc1cccc(CCC(=O)Nc2ccc3nc(C)cc(N)c3c2)c1")
"< 4.00"
>>> val("COc1cccc(CCC(=O)Nc2ccc3nc(C)cc(N)c3c2)c1OC")
"< 4.00"
>>> val("COc1cc(Br)ccc1CCC(=O)Nc1ccc2nc(C)cc(N)c2c1")
"< 4.00"
>>> val("Cc1cc(N)c2cc(NC(=O)c3ccc(-c4ccc5ncccc5c4)cc3)ccc2n1")
4.42
>>> val("Cc1cc(N)c2cc(NC(=O)Nc3ccc4c(c3)OCO4)ccc2n1")
4.39
>>> val("COc1ncccc1CCC(=O)Nc1ccc2nc(C)cc(N)c2c1")
"< 4.00"

* * *

Target: Lethal factor (Bacillus anthracis)
Sequence (P15917 whole entry): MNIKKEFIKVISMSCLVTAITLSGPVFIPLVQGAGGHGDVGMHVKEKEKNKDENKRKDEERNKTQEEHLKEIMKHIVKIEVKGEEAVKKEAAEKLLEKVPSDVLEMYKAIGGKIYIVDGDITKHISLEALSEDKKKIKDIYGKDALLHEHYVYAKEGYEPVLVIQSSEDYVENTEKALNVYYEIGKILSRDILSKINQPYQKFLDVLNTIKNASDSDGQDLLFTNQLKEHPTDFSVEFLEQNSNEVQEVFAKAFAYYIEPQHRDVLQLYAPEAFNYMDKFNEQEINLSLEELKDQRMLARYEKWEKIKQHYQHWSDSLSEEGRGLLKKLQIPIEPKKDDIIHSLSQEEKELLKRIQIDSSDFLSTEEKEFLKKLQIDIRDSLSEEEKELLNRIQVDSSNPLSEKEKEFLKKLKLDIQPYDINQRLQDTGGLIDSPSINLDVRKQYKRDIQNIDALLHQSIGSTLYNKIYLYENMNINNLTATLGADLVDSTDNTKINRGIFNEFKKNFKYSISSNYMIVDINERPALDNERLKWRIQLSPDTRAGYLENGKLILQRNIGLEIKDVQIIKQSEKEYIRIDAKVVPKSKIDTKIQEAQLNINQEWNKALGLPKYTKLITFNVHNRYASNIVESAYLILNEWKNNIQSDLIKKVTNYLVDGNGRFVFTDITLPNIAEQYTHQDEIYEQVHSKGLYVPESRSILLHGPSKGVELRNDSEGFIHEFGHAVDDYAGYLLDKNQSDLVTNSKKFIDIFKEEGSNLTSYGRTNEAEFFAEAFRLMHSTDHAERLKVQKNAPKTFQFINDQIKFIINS
Assay: Inhibition of Bacillus anthracis lethal factor assessed as MCA-KKVYPYPME[dnp]K amide cleavage after 30 mins by fluorescence plate reader analysis
pIC50: −log10 of the molar value.
property measured: pIC50

>>> val("Cc1cc(N)c2cc(NC(=O)c3cccc(-c4cccc5cccnc45)c3)ccc2n1")
4.44
>>> val("Cc1cc(N)c2cc(NC(=O)Nc3ccc(F)cc3)ccc2n1")
4.02
>>> val("CCOC(=O)c1ccc(NC(=O)Nc2ccc3nc(C)cc(N)c3c2)cc1")
4.06
>>> val("COc1ccccc1CCC(=O)Nc1ccc2nc(C)cc(N)c2c1")
5.52
>>> val("Cc1cc(N)c2cc(NC(=O)NCc3ccccc3Cl)ccc2n1")
4.21
>>> val("Cc1cc(N)c2cc(NC(=O)c3ccc(-c4cncc5ccccc45)cc3)ccc2n1")
4.89
>>> val("Cc1cc(N)c2cc(NC(=O)c3ccc(-c4ccccc4)cc3)ccc2n1")
4.32
>>> val("Cc1cc(N)c2cc(NC(=O)c3ccc(-c4cccnc4)cc3)ccc2n1")
4.37
>>> val("Cc1cc(N)c2cc(NC(=O)COc3ccc(OCc4ccccc4)cc3)ccc2n1")
4.48
